Give MIC for every item shown.
Tested on: Pseudomonas aeruginosa
Test: Antibacterial activity against Pseudomonas aeruginosa PAO1 by CLSI broth microdilution method
Assay type: functional
Numbers only, in µg/mL.

C[C@@H](O)[C@H]1C(=O)N2C(C(=O)O)=C(S[C@@H]3CN[C@H](C(=O)N(C)C)C3)[C@H](C)[C@H]12 ... 0.5
C[C@H]1COc2c(N3CCN(C)CC3)c(F)cc3c(=O)c(C(=O)O)cn1c23.C[C@H]1COc2c(N3CCN(C)CC3)c(F)cc3c(=O)c(C(=O)O)cn1c23.O ... 0.5

Required: MIC, one value per compound below.
1. C[C@@H](O)[C@H]1C(=O)N2C(C(=O)O)=C(SCCNC=N)C[C@H]12 [IMIPENEM ANHYDROUS]
2. CCN1CCN(C(=O)N[C@@H](C(=O)N[C@@H]2C(=O)N3[C@@H]2SC(C)(C)[C@@H]3C(=O)O)c2ccccc2)C(=O)C1=O
3. CC(C)(O/N=C(\C(=O)N[C@@H]1C(=O)N2C(C(=O)[O-])=C(C[n+]3ccccc3)CS[C@H]12)c1csc(N)n1)C(=O)O

OUTPUT:
2
4
2

# credit: ChEMBL document CHEMBL1137630
